Please respond with reported pIC50 for every item in the list.
- Study target: Oxoeicosanoid receptor 1 (Homo sapiens, UniProt Q8TDS5)
- Sequence (Q8TDS5 whole entry): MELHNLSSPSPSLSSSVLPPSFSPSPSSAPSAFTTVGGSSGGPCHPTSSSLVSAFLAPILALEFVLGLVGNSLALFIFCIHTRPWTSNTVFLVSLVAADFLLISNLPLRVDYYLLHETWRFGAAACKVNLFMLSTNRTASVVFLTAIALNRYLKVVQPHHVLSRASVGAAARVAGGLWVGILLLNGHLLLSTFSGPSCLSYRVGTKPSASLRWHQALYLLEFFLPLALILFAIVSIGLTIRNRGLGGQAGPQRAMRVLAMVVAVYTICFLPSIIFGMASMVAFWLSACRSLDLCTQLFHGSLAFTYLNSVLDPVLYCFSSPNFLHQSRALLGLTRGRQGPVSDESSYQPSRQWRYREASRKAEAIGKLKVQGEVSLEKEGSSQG
- Test details: Antagonist activity at OXE receptor in human neutrophils assessed as inhibition of 5-oxo-ETE-induced calcium mobilization incubated for 2 mins followed by 5-oxo-ETE addition measured after 1 min by fluorescence assay
Keep in mind that pIC50 stands for -log10 of concentration in molar terms.

Input line: Report measured pIC50 on Oxoeicosanoid receptor 1 (Homo sapiens, UniProt Q8TDS5); entry: "CCCCCCc1c(C(=O)CC2(CC(=O)O)CCC2)c2cc(Cl)ccc2n1C"
Output line: 6.14

Input line: Report measured pIC50 on Oxoeicosanoid receptor 1 (Homo sapiens, UniProt Q8TDS5); entry: "CCCCCCc1c(C(=O)CC(C)(C)CC(=O)O)c2cc(Cl)ccc2n1C"
Output line: 5.88

Input line: Report measured pIC50 on Oxoeicosanoid receptor 1 (Homo sapiens, UniProt Q8TDS5); entry: CCCCCCCCCCCc1c(C(=O)CC(C)CC(=O)O)c2cc(Cl)ccc2n1C (stereo unspecified)
Output line: 7.64

Input line: Report measured pIC50 on Oxoeicosanoid receptor 1 (Homo sapiens, UniProt Q8TDS5); entry: "CCCCCCc1c(C(=O)c2cccc(C(=O)O)c2)c2cc(Cl)ccc2n1C"
Output line: 5.95

Input line: Report measured pIC50 on Oxoeicosanoid receptor 1 (Homo sapiens, UniProt Q8TDS5); entry: "CCCCCCc1c(C(=O)c2ccc(C(=O)O)cc2)c2cc(Cl)ccc2n1C"
Output line: 5.87

Input line: Report measured pIC50 on Oxoeicosanoid receptor 1 (Homo sapiens, UniProt Q8TDS5); entry: "CCCCCCc1c(C(=O)CC2(CC(=O)O)CC2)c2cc(Cl)ccc2n1C"
Output line: 6.24

Input line: Report measured pIC50 on Oxoeicosanoid receptor 1 (Homo sapiens, UniProt Q8TDS5); entry: "CCCCCCc1c(C(=O)C(C)(C)CCC(=O)O)c2cc(Cl)ccc2n1C"
Output line: 5.09

Input line: Report measured pIC50 on Oxoeicosanoid receptor 1 (Homo sapiens, UniProt Q8TDS5); entry: "CCCCCCc1c(C(=O)COCC(=O)O)c2cc(Cl)ccc2n1C"
Output line: 5.26

Input line: Report measured pIC50 on Oxoeicosanoid receptor 1 (Homo sapiens, UniProt Q8TDS5); entry: "CCCCCCc1c(C(=O)C[C@@H](C)CC(=O)O)c2cc(Cl)ccc2n1C"
Output line: 5.57

Input line: Report measured pIC50 on Oxoeicosanoid receptor 1 (Homo sapiens, UniProt Q8TDS5); entry: "CCCCCCc1c(C(=O)CCC(C)(C)C(=O)O)c2cc(Cl)ccc2n1C"
Output line: 5.39
